Target: T1, Di-phosphorylated BAF (BAF phosphorylated by VRK1 on Thr3 and Ser4) (human, UniProt O75531 1-89, glycine as residue 1 instead of the native methionine | C67 mutated into …, phosphothreonine at 3, phosphoserine at 4)
T1 construct: human barrier-to-autointegration factor (BANF1), an 89-aa protein; residue 1 is a glycine left by the TEV site instead of the native methionine; all four cysteines mutated into alanine; phosphorylated on Thr3 and Ser4; Same construct as m1, then phosphorylated; also called pBAF; not shown: His tag, N-terminal, cleaved
T1 sequence (looked up): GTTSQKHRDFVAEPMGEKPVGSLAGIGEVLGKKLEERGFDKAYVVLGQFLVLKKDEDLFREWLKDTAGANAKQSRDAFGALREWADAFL
Experiment: ITC; VP-ITC, 15°C; BAF or pBAF dimers at 20 μM in the cell titrated with LamIgF at 100 μM or LEM at 150 μM in the syringe; 50 mM HEPES pH 7.4, 150 mM NaCl; in duplicate
Conditions: both partners purified
Measure: Kd

The recorded Kd for entry MDNYADLSDTELTTLLRRYNIPHGPVVGSTRRLYEKKIFEYETQRR (domain or fragment, UniProt P50402 1-46, looked up, human emerin, residues 1-46 (LEM domain); also called emerin LEM domain; LEM fragment) [LEM domain of human emerin from amino acid 1 to amino acid 46] equals ~1000 nM
